assay: yeast display, Sf9 membrane polyspecificity reagent, FACS + sequencing; frameworks hold sequencing errors
property.label: polyreactivity (PSR sort gate)

Solved cases (6 shown):
QVQLVESGGGLVQPGGSLRLSCAASGRTFRWYAMGWYRQEPGKERELVAAISAGGGSTYYADSVKGRFTISRDNAKYTVSLQLTRVKPEDTAVYYCNRVAWNYGFGSSAYGYWGQGTQVTVSS	high polyreactivity
QVQLVESGGGLVQAGGSLRLSCAASGSTFLNYAMGWYRQAPGKERELVAAISGRGGRTYYADSVKGRFTISRDNAKNTVYLQMNSLKPEDTAVYYCARRVRFPGGTFYYWGQGTQVTVSS	high polyreactivity
QVQLVESGGGLVQAGGSLRLSCAASGSTFRFYAMGWYRQAPGKERELVAAITWRGGRTYYADSVKGRFTISRDNAKNTVYLQMNRLKPEDTAVYYCAGGRGWQSQIPAKYYYWGQGTQVTVSS	high polyreactivity
QVQLVESGGGLVQAGGSLRLSCAASGRIFPDNTMGWYRQAPGTERELVAAITSSGGSTYYADSVKGRFTISRDNAKNTVYLQMNSLKPEDTAVYYCAAAVKRGYAQSFISDGYGYWGQGTQVTVSS	low polyreactivity
QVQLVESGGGLVQAGGSLRLSCAASGSTFPYYDMGWYRQAPGKERELVAAISWSGDSTYYADSVKGRFTISRDNAKNTVYLQMNRLKPEDTAVYYCAAYSDYWSYLSTDDYWGQGTQVTVSS	low polyreactivity
QVQLVESGGGLVQAGGSLRLSCAASGYILFAYAMGWYRQAPGKERELVATITTSGGITYYADSVKGRFTISRDNAKNTVYLQMNSLKPEDTAVYYCAAAEGGGLVTYDYWGQGTQVTVSS	low polyreactivity

**Query** # polyreactivity (PSR sort gate) lookup, item "QVQHVESGGGLVQAGGSLRLSCAASGRTFVLYTMGWYRQAPGKERELVAAISGSGGRTYYADSVKGRFTISRDNAKNTVYLQMNSLKPEDTAVYYCAAYGQGLPLYGYWGQGTQVTVSS"
**Result** high polyreactivity

**Query** Please report the recorded polyreactivity (PSR sort gate) for "QVQLVESGGGLVQAGGSLRLSCAASGSIFSGWYTMGWYRQAPWKERELVASISISTTDTYYADSVKGRFTISRDNAKNTVYVQMNSLKPEDTAVYYCAASGWDHVIVEYDYWGQGTQVTVSS" .
**Result** low polyreactivity

---

assay: yeast display, Sf9 membrane polyspecificity reagent, FACS + sequencing; frameworks hold sequencing errors
property.label: polyreactivity (PSR sort gate)

QVQLVESGGGLVQAGGSLRLSCAASGFNFPYNAMGRYRQAPGKERELVAAITSGSNTYYADSVKGRFTISRDNAKNTVYLQMNSLKPEDTAVYYCAARGHGAYGYWGQGTQVTVSS	low polyreactivity
QVQLVESGGGLVQAGGSLSLSCAASGRIFYVNTMGWYRQAPGKERELVATISSAASTNYADSVKGRFTISRDNAKNTVYLQMNSLKPEDTAVYYCNAAFYKEYYYWGQGTQVTVSS	low polyreactivity
QVQLVESGGGLVQAGGSLRLSCAASGSIFVINAMGWYRQAPGKERELVAAIDWSGDSTYYADSVKGRFTISRDNAKNTVYLQMNSLKPEDTAVYYCAADLDSRGTYGRYEYWGQGTQVTVSS	low polyreactivity
QVQLVESGGGLVQAGGSLRLSCAASGYTFVIYAMGSYRQAPGKERELVAAITTIGGRTYYADSVKGRFTISRDNAKNTVYLQMNSLKPEDTAVYYCAADIRSNRLYDGGYWGQGTQVTVSS	low polyreactivity
QVQLVESGGGLVQAGGSLRLSCAASGRVYAMGWYRQAPGKERELVAPITTSGGRTYYADSVKGRFTISRDNAKNSVYCQMNSLKPEDTAVYYCNKPGYPPSDMYYWGQGTQVNVSS	low polyreactivity

**Query** State the recorded polyreactivity (PSR sort gate) for this entry: "QVQLVESGGGLVQAGGSLRLSCAASGGILDTYAMGWYRQAPGKERELVAAITSGGNTNYADSVKGRFTISRDNAKNTVYLQMNSLKPEDSAVYYCNVVTWYYVFRPWEYEYWGQGTQVTVSS"
**Result** low polyreactivity

**Query** Report polyreactivity (PSR sort gate) for "QVQLVESGGGLVQAGGSLRLSCAASGRIFSKKAMGWYRQAPGKERELVARIRWTGGITYYADSVKGRFTISRDNAKNTVYLQMNSLKPEDTAVYYCAADYLWGTWTTYFRPLLYDYWGQGTQVTVSS" please.
**Result** low polyreactivity

**Query** For "QVQLVESGGGLVQAGGSLRLSCAASGSILGYYAMGWYRQAPGTEREFVAAITRSGSRTYYADSVKGRFTISRDNAKNTVNLHMNSLKPEDTAVYYCAKKGLFQGWPTLVDYWGEGTQVTVSS" , what is its reported polyreactivity (PSR sort gate)?
**Result** high polyreactivity

**Query** For the sequence shown here, "KVQLVESGGGLVQAGGSLRLSCAASGSILSPNAMGWYRQAPGKERELVAAINSGGGSTYYADSVKGRFTLSRDNAKNTVYLQMNSLKPEDTAVYYCAADHYYYRSRAYTYIIYDYWGQGTQVTVSS" , give the reported polyreactivity (PSR sort gate).
**Result** low polyreactivity

**Query** Return reported polyreactivity (PSR sort gate); argument: "QVQHVESRGGLVQAGGSLRLICAASGFILYYYAMGWYRQAPGKVREMVASISRRGGSTYYADSVKGRFTISRDNAKNTVYLQMNSLKPEDTAVYYCAATETTSRRFGYDYWGQGTQVTVSS"
**Result** high polyreactivity

**Query** Any idea what polyreactivity (PSR sort gate) was measured for "QVQLVESGGGLVQAGGSLRLSCAASGSTFGVNAMGWYRQAPGKERELVAAISSSGSSTYADSVKGRFTISRDNAKNTVYLQMNSLKPEDTAVYYCNKTTLLTVEYDYWGQGTQVTVSS" ?
**Result** low polyreactivity

**Query** # get_value(readout='polyreactivity (PSR sort gate)', item= "QVQLVESGVGLVQARGSLPLSCAASGSIFYYYVMGWYRQAPGKERELVAAIRSSGTSTYYADSVKGRFTISRDNAKNTVYLQRNSLKPEDTAVYYCNRARSSSRYDYWGQGTQVTVSS" )
**Result** low polyreactivity

---

experiment: yeast display, Sf9 membrane polyspecificity reagent, FACS + sequencing; frameworks hold sequencing errors
property.label: polyreactivity (PSR sort gate)

Please review the entries below; each comes with its answer.
QVQLVESGGGLVQAGGSLRISCVASARTFYRYAMGWYRQAPGKERELVAVITRGGSTYYADSVKGRFTISRDNAKNPVYLQMNSLKPEDTAVYFCNADGRVQRKYDYWGQGTQVTVSS	high polyreactivity
QVQLVESGGGLVQAGGSLRLSCAASGFTFYHNAMGWYRQATGKERELVATITARGGRTYYADSVKGRFTISRDNAKNTVYLQMNSLKPVDTAVYYCNVKASRGYTYEYDYWGQGTQVTVSS	high polyreactivity
QFQLVESGGGLFQAGGSLRLSCAAYGRISLRNGMGWYRQAPGKERELVAAISRGGSTYYADSVKGRFTISRDNAKNTVYLQMNSLKPEDTAVYYCNADIRPIYGDDDYWGQSTQVTVSS	low polyreactivity
QVQLVESGGGLVQAGGSLRLSCAASGIIFYGYAMGWYRQAPGKERELVAAISRSGGSTYYADSVKGRFTISRDNAKNTVYLQMNSLKPEDTAVYYCAAVAYPGKGNRGNYDYWGQGTQVTVSS	high polyreactivity

# evaluate next
**Query** Recorded polyreactivity (PSR sort gate) of "QVQLVESGGGLVQAGGSLRLSCAASGTTLYWNAMGWYRQAPGKERELVAAISRSGGSTYYADSVKGRFTISRDNAKNTVYLQMNSLKPEDTAVYYCAARRYVPHTEYYYWGQGTQVTVSS" , please.
**Result** low polyreactivity

---

assay: yeast display, Sf9 membrane polyspecificity reagent, FACS + sequencing; frameworks hold sequencing errors
property.label: polyreactivity (PSR sort gate)

Illustrative cases are given below, each with its answer.
QVQLVESGGGLVQVGGSLRLSCAASGGIFSGNAMGWYRQAPGKERELVAGITNCGRTSYADSVKGRFTISRDNAKNTDYFQMNSLKPEDTAVYYCNAKVGAYLNYGYWGQGTQVTVSS	low polyreactivity
QVQLVESGGGLVQAGGSLRLSCAASGFTFWLYAMGWYRQAPGKERELVATISWSGGSTYYADSVKGRFTISRDNAKNTVYLQMNSLKPEDTAVYYCAARLNYGNKYDYWGQGTQVTVSS	high polyreactivity
QVQLEESGGGLVQAGGSLRLSCAASGFTFYRYAMGWYRQAPGKERELVAAITWSGGSTYYADSVKGRFTISRDNAKNTVYLQMNSLKPEDTGVYYCNAAAYYPTNYGGYLFEYWGQGTQVTVSS	low polyreactivity
QVQLVESGVGLVQAGGSLRLSCAASGSTFYYYAMGWYRQAPGKERELVAAISWSGASTFYADSVKGRFTISRDNAKITVYLQMNSLKPEDTAVFYCAARYYGQPQYQPLYYWGQGTQVTVSS	high polyreactivity

Then this sequence:
**Query** Request the reported polyreactivity (PSR sort gate) associated with "QVQLVESGGGLVQPGGSLRLSCAASGYTFWQYAMGWYRQAPGKERELVAAISGSGGRTYYADSVKGRFTISRDNAKNTVYLQMNSLKPEDTAVYYCAAPYLRYYLGWYDYWGQGTQVTVSS"
**Result** high polyreactivity
